- experimental.system: purified recombinant human HER2 protein (Homo sapiens (Human), UniProt P04626)
- Sequence (P04626 23-1255): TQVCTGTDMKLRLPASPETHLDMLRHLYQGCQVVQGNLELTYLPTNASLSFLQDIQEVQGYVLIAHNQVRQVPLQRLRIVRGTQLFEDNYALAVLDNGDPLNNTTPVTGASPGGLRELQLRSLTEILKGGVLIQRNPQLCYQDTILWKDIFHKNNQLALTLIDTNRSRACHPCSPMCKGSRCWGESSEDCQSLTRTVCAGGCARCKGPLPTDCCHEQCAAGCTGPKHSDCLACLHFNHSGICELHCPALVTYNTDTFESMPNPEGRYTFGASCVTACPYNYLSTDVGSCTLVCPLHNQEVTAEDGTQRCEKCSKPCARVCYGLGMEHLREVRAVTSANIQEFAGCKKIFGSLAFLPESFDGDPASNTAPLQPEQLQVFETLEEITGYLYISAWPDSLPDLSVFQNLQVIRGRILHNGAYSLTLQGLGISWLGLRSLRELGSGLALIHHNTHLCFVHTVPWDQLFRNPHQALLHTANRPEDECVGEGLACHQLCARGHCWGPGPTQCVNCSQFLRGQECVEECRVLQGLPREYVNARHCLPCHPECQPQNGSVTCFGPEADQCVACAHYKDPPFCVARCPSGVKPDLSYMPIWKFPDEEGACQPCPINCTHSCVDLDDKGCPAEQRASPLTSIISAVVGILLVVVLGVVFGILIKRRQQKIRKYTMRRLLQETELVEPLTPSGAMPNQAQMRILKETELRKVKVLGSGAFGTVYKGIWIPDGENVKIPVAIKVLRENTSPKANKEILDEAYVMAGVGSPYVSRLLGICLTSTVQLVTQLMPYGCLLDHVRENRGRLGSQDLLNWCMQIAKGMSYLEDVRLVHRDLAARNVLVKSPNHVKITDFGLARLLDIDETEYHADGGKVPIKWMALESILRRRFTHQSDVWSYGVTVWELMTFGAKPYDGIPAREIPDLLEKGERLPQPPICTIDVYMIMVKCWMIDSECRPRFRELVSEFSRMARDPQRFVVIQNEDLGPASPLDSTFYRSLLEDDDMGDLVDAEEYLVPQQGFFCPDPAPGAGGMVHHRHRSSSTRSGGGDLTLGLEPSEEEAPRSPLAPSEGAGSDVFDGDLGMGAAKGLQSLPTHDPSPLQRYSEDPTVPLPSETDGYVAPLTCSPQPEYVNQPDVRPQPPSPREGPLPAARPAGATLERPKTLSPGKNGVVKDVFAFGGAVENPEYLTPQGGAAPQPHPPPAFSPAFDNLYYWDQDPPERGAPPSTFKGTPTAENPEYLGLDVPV
- assay.summary: Measurement of inhibitory effect on HER2-phosphorylating activity (in vitro)
- condition.parameters: ATP 6 μM, 25° C., 40 minutes

molecule	IC50
C=CC(=O)N1CCC[C@@H](n2nc(C(=O)Nc3cc(Br)c(CC(=O)N(C)C)cc3C)c3c(N)ncnc32)C1 [compound 1]	10 nM
C=CC(=O)N1CC[C@@H](n2nc(C(=O)Nc3ccc(CC(=O)N(C)C)c(F)c3OC)c3c(N)ncnc32)C1 [compound 57]	31 nM
C=CC(=O)N1CCC[C@@H](n2nc(C(=O)Nc3ccc(CC(=O)N(C)C)cc3C3CC3)c3c(N)ncnc32)C1 [compound 22]	48 nM
C=CC(=O)N1CCC[C@@H](n2nc(C(=O)Nc3ccc(CC(=O)N(C)C)cc3Br)c3c(N)ncnc32)C1 [compound 17]	5.9 nM
